- Tested on: ASK1;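 further: KINOMEscan kinase panel screen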
- Construct: gene MAP3K5
- condition_summary: concentration: 1 μM, replicates: in singlicate; n = 1
observed_property: %Inh (%)

1) O=C(Nc1n[nH]c2nc(-c3ccc(O)cc3)ccc12)C1CC1: 18
2) Cn1cc(-c2ccc3c(c2)CCN3C(=O)Cc2cccc(Cl)c2)c2c(N)ncnc21: 9
3) Oc1cc(Nc2ccnc3cc(I)ccc23)ccc1F: 0
4) O=C(Nc1cccc(Oc2ccc3nc(NC(=O)C4CC4)cn3n2)c1)c1ccccc1C(F)(F)F: 0
5) COc1cc(Nc2ncc3c(C)nc(-c4cc5ccccc5[nH]4)n3n2)cc(OC)c1OC: 0
6) C[C@@H](Oc1cc(-n2cnc3cc(-c4ccnc(NCCS(C)(=O)=O)c4)ccc32)sc1C(N)=O)c1ccccc1Cl: 0
7) COc1cccc(NC(=O)NC2CCN(c3ccnc(Nc4cc(OC)c(OC)c(OC)c4)n3)C2)c1 (stereo not shown): 0

Values from paper PMC5540273
